biological target: OsWRKY34 (Oryza sativa, UniProt Q0JBA9 1-250); experiment: protein-binding microarray (RPBM); PBS, 2% BSA, 51.3 ng/ul salmon testes DNA, 50 uM zinc acetate, 200 nM TF, 25 C, 1 h; high values mean tight binding; settings: protein: recombinant; tags: N-terminal polyhistidine and DsRed monomer fusion (pET32a); label: CyDye5-dUTP incorporated in the synthesized complementary strand; 3' TTTTT single-stranded linker to array surface; dsDNA, one strand shown
Sequence (Q0JBA9 entry or part of it): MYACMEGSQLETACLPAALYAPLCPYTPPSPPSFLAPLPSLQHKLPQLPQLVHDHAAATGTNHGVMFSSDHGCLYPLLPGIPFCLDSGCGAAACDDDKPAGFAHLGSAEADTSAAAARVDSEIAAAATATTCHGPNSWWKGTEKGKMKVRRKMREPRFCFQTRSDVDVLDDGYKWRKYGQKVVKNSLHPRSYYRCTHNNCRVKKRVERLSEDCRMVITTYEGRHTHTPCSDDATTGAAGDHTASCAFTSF
In all, about 68,000 sequences were measured (“fluorescence intensity (a.u.)”: median about 9,100, highest 2% from about 16,000 on). Only a selection was taken, and the highest values are over-represented in it overall.
Give binding signal for every item shown.

Solved entries:
>>> df
                        biopolymer_sequence                          target_or_system  recorded_endpoint                               result
0  TTGGGTTGGGTCTTGGGTTTGGTGGTTTGAATTTGGTGTGCGGAGTCACCTAGTGCAG  OsWRKY34 (Oryza sativa, UniProt Q0JBA9 1-250)     binding signal  13100 fluorescence intensity (a.u.)
1  GGCTGGTTTGGTTTGTGGCTAAAATTGGCCTTACCAATTTCGGAGTCACCTAGTGCAG  OsWRKY34 (Oryza sativa, UniProt Q0JBA9 1-250)     binding signal  10500 fluorescence intensity (a.u.)
2  TTTTTGGCTGGTCAAATTTGGCTAGTGTGGGGAGGGTTTTCGGAGTCACCTAGTGCAG  OsWRKY34 (Oryza sativa, UniProt Q0JBA9 1-250)     binding signal  23600 fluorescence intensity (a.u.)
3  TGGTTTTTCATTTTGTGTGCGTGTGCACGTTTGTGTGGGGCGGAGTCACCTAGTGCAG  OsWRKY34 (Oryza sativa, UniProt Q0JBA9 1-250)     binding signal  12700 fluorescence intensity (a.u.)

Let us move to another entry and its binding signal.
Entry `GCTATCTCCATCGTCTCTTTCCTTGACCACAGCGGCAATGCGGAGTCACCTAGTGCAG` , binding signal reported as 9860 fluorescence intensity (a.u.)
